This collection of values is drawn from patent US8546377B2.

measured.on: 5HT2B receptors (Homo sapiens)
Construct: expressed in transfected cells; host or cells: CHO-K1 cells
assay.text: Human 5-HT2B functional assay in CHO-K1 cells (calcium flux, FLIPR)
Format: cell-based
condition.set: CHO-K1 cells; percentage relative to the effect of serotonin; read-out: Emax (%), 5-HT2B Agonist Activity
reported.endpoint: Emax (%)

compound | unit.tag | Emax
CS(=O)(=O)c1ccccc1-c1ccc2c(c1)N1CCNC[C@@H]1CCO2 [Example 195] | % | 55
C[C@H](Oc1ccc2c(c1)N1CCNCC1CC(=O)N2)c1ccccc1 (stereo partly shown) [Example 154] | % | 44
CC(C)=Cc1ccc2c(c1)N1CCNC[C@@H]1CCO2 [Example 208] | % | 50
O=C1C[C@H]2CNCCN2c2cc(OCCc3cccc(Cl)c3)ccc2N1 [Example 175] | % | 20
O=C1CC2CNCCN2c2cc(-c3cnc4ccccc4c3)ccc2N1 (stereo not shown) [Example 62] | % | 60

I: c1ccc(-c2ccc3c(c2)N2CCNC[C@@H]2CCO3)cc1 [Example 187]
II: C[C@@H](Oc1ccc2c(c1)N1CCNCC1CC(=O)N2)c1ccccc1 (stereo partly shown) [Example 153]
Prompt: Between I and II , which one has the lower reported Emax value? Give the label of your selection.
Completion: I
(I: 10%, II: 20%)

###

measured.on: 5HT2C receptors (Homo sapiens)
assay.text: Human 5-HT2C functional assay in CHO-K1 cells (calcium flux, FLIPR)
Assay type: cell-based
Parameters: expressed in transfected cells; host or cells: CHO-K1 cells
condition.set: CHO-K1, read-out: Emax (%), 5-HT2c Agonist Activity, CHO-K1 cells; percentage relative to the effect of serotonin
# Emax per record follows

Worked set:
compound | reported.endpoint | value
O=C1C[C@@H]2CNCCN2c2c(F)cccc2N1 | Emax | > 120%
Brc1ccc2c(c1)NCCC1CNCCN21 (stereo not drawn) | Emax | > 120%
O=C1NC[C@@H]2CNCC[C@@H]2c2ccccc21 (relative stereo) | Emax | > 120%
O=C1CC2CNCCN2c2cc(F)ccc2N1 (stereo not drawn) | Emax | > 120%
Clc1cc2c(cc1Cl)N1CCNC[C@@H]1CCO2 | Emax | > 120%

Form: compound = O=C1CC2CNCCN2c2c(F)cccc2N1 (stereo not drawn) ; Emax = > 120%

###

measured.on: 5HT2C receptors (Homo sapiens)
Sequence (P28335 33-458): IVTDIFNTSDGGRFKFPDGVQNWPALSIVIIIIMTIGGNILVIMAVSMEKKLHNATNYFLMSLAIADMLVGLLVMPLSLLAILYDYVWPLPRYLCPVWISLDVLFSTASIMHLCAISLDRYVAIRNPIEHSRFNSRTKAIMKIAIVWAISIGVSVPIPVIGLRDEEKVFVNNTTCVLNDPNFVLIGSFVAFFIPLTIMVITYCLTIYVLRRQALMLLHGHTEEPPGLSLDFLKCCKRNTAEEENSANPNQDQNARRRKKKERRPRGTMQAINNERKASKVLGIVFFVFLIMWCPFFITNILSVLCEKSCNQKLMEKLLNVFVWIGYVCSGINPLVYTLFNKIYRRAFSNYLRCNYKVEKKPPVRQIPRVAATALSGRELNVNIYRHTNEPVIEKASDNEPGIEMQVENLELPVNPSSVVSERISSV
assay.text: Human 5-HT2C functional assay in CHO-K1 cells (calcium flux, FLIPR)
Assay type: cell-based
Parameters: expressed in transfected cells; host or cells: CHO-K1 cells
condition.set: CHO-K1 cells; percentage relative to the effect of serotonin; read-out: Emax (%), 5-HT2c Agonist Activity
reported.endpoint: Emax (%)

Some compounds with known Emax results, for comparison:
compound | measured.on | reported.endpoint | unit.tag | value
c1cc(-c2ccsc2)c2c(c1)N1CCNC[C@@H]1CCO2 [Example 250] | 5HT2C receptors (Homo sapiens) | Emax | % | 95
O=C1CC2CNCCN2c2cc(-c3cc4ccccc4s3)ccc2N1 (stereo not shown) [Example 75] | 5HT2C receptors (Homo sapiens) | Emax | % | 80
C[C@@H](Oc1ccc2c(c1)N1CCNCC1CC(=O)N2)c1ccccc1 (stereo partly shown) [Example 153] | 5HT2C receptors (Homo sapiens) | Emax | % | 110

A: O=C1CC2CNCCN2c2cc(-c3cnn(Cc4ccccc4)c3)ccc2N1 (stereo not shown) [Example 56]
B: FC(F)(F)c1ccc2c(c1)OCC[C@H]1CNCCN21 [Example 216]
Prompt: Which numeric Emax is bigger, that of A or that of B ? Lab log: write the label of the selected item as the result.
Completion: A
(A: 110%, B: 55%)

###

Catalogue of EC50 readings, one per entry.
measured.on: 5HT2B receptors (Homo sapiens, UniProt P41595)
Construct: expressed in transfected cells; host or cells: CHO-K1 cells
Sequence (P41595 whole entry): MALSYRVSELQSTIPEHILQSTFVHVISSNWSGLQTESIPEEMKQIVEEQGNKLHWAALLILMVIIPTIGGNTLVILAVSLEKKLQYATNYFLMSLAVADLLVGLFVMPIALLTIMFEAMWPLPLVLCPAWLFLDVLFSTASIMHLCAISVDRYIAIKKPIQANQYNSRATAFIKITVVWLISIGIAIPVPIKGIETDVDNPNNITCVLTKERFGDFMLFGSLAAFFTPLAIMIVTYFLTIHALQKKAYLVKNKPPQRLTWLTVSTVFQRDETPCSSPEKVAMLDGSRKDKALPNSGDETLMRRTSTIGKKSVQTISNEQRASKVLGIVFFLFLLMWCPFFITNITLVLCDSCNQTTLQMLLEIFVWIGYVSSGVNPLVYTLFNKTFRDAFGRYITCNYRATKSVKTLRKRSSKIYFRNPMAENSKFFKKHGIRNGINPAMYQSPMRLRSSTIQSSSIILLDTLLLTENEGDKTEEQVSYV
assay.text: Human 5-HT2B functional assay in CHO-K1 cells (calcium flux, FLIPR)
Format: cell-based
condition.set: CHO-K1 cells over-expressing 5HT2B, calcium flux; read-out: EC50 (μM), 5-HT2B Agonist Activity

Some solved cases for reference:
compound | measured.on | value
O=C1C[C@H]2CNCCN2c2cc(OCCc3ccccn3)ccc2N1 | 5HT2B receptors (Homo sapiens, UniProt P41595) | > 10 µM
O=C1CC2CNCCN2c2cc(-c3csc4ccccc34)ccc2N1 (centres unmarked) | 5HT2B receptors (Homo sapiens, UniProt P41595) | > 10 µM

With 5HT2B receptors (Homo sapiens, UniProt P41595) as the test system, O=C1CC2CNCCN2c2cc(-c3cccc(F)c3)ccc2N1 (centres unmarked) showed EC50 of > 10 µM

GET /values?item= `O=C1C[C@H]2CNCCN2c2cc(OC(F)F)ccc2N1` &system= 5HT2B receptors (Homo sapiens, UniProt P41595) returns EC50: 0.08 µM

Note to self: EC50 of O=C1CC2CNCCN2c2cc(OCCc3cccc(F)c3)ccc2N1 (centres unmarked) with 5HT2B receptors (Homo sapiens, UniProt P41595) was > 10 µM

Test item `O=C1C[C@H]2CNCCN2c2cc(OCCc3ccccc3Cl)ccc2N1` ; 5HT2B receptors (Homo sapiens, UniProt P41595); reported EC50 was > 10 µM

// returns EC50 for O=C1CC2CNCCN2c2ccc(S(=O)(=O)c3ccccc3)cc2N1 (centres unmarked) with 5HT2B receptors (Homo sapiens, UniProt P41595); value = 0.9 µM

Kindly note: 5HT2B receptors (Homo sapiens, UniProt P41595), `c1cc(-c2ccc3c(c2)N2CCNC[C@@H]2CCO3)ccn1` , EC50 value reported: > 10 µM

Value (EC50, 5HT2B receptors (Homo sapiens, UniProt P41595)) for record O=C1CC2CNCCN2c2cc(COc3ccccc3)ccc2N1 (centres unmarked) = 0.7 µM

Value sought: EC50, system 5HT2B receptors (Homo sapiens, UniProt P41595), item `O=C1C[C@H]2CNCCN2c2cc(OCCc3cccc(F)c3)ccc2N1` . Result: > 10 µM

Note to self: EC50 of O=C1CC2CNCCN2c2cc(CCc3ccccc3F)ccc2N1 (centres unmarked) with 5HT2B receptors (Homo sapiens, UniProt P41595) was > 10 µM

Record O=C1NCC2CNCCN2c2ccc(NS(=O)(=O)c3ccccc3)cc21 (centres unmarked) has 5HT2B receptors (Homo sapiens, UniProt P41595) EC50 equal to > 10 µM

Item: O=C1CC2CNCCN2c2cc(/C=C/c3cc(F)cc(F)c3)ccc2N1 (centres unmarked) | System: 5HT2B receptors (Homo sapiens, UniProt P41595) | EC50: 1 µM

###

measured.on: 5HT2C receptors (Homo sapiens)
Sequence (P28335 33-458): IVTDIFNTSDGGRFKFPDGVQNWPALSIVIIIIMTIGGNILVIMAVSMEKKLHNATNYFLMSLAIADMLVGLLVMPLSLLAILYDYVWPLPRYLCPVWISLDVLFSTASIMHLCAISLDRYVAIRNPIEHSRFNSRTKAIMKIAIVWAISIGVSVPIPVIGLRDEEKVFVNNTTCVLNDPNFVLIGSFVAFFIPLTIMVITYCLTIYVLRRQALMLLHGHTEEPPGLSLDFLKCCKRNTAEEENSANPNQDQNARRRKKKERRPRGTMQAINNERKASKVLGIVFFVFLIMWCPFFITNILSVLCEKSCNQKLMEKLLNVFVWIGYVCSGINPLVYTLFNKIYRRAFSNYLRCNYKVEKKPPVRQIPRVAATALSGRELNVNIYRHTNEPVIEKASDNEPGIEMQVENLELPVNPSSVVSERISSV
assay.text: Human 5-HT2C functional assay in CHO-K1 cells (calcium flux, FLIPR)
Type: cell-based
Parameters: expressed in transfected cells; host or cells: CHO-K1 cells
condition.set: CHO-K1 cells over-expressing 5HT2C, calcium flux; read-out: EC50 (μM), 5-HT2c Agonist Activity
Procedure: (iii) Human 5-HT2C and 5-HT2B Functional Assay in CHO-K1 Cells […] Fluorescence measurements were read at 25° C. at an excitation wavelength of 480 nm and an emission wavelength of 530 nm in FLIPR (MDS). Baseline fluorescence was measured for the first 10 seconds and then 15 μL of 4× concentrations of serotonin/test compounds was added to the cell plate. The fluorescence intensity was captured every second for the first 1 minute followed by every 5 seconds for an additional 2 minutes. […]
reported.endpoint: EC50 (µM)

compound | measured.on | EC50, µM
Nc1ccc2c(c1)OCC[C@H]1CNCCN21 | 5HT2C receptors (Homo sapiens) | 1

I: C[C@@H](Cc1ccccc1)Oc1ccc2c(c1)N1CCNC[C@@H]1CC(=O)N2
II: c1ccc(CN2CCN3c4ccccc4OCC[C@H]3C2)cc1
III: CCN1C(=O)CC2CNCCN2c2ccc(Cl)cc21 (stereo not shown)
Prompt: Ascending sort, EC50. Field: ranking. Enter the labels in the order requested.
Completion: I, III, II
